test: protease stability score; higher = more stable; yeast display proteolysis, trypsin and chymotrypsin;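 note: relative to predicted unfolded state with 0 unfolded-like and 1 meaning tenfold more protease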
Catalogue of protease stability score readings, one per entry.
experimental_endpoint: protease stability score

INSERT INTO results (polymer_sequence, experimental_endpoint, value_reported) VALUES
  ('DDRERQAESMMHLWLEVLLTGDEDRLMKLADPNTRHHVNGVDAHGRENIKRVAKEFDEQMRIHRVEIRQVRIIGDKTEVDGRVDVEVNGRRRDTETHLRVIVIDGRIHEVHLIIR', 'protease stability score', 0.725),
  ('SEEEEKIKKLHTDWLHLLLTGDEDRLKQLMDPHAKISIEQGDFHLDLHGREDIIEFYWEERHRIDHLDIRVRHIEVWNGKIITKEENRIDFNGRKHVTEVDLEIEIVDGKFRSLHIRIH', 'protease stability score', 1.02),
  ('DDKEQRVEELARLLYKMLLTGDWKTLEHLADPHVRMHQGEYNNVGMETVVEHWRRWYEHIRLDDMKITDLKVYGNKLHTDIRLDGEVNGKHRILESELLLIVVDGKMREIEIRII', 'protease stability score', 1.19),
  ('DEEKEDNKHFLKIHREDLHTGNEDSLKRLADPNARIHIGDKDYHGWEFWLTLSRELGVDHMHLIIDHVDLQGEKARIEGELEFTVGDKKHRIKTRLILEKIDGVWVYKSVTIE', 'protease stability score', 1.04),
  ('DEEHKLQEDFLKALIRSILTGDWEFWKRLLDPHVRMNINGVYVHGRDEAANILIKDLERRGMEIKTITIEDRRHYDGVLEVKLRIQTTIDGQEHETSLEFHVKKYDGRWIIEHITVR', 'protease stability score', 2.19),
  ('DETSREEEEHARLWTHAWLTGDEELFKKLADPHVKTEIDGRDLIGRDEMTRMFHDLLRELGVKHSTIEEIHIVNGRVEIRISIEVDGRPIKVRIHVEFFNGRVQRIQIRYE', 'protease stability score', 0.903),
  ('DHEENMLKLMVTLWTQSLRTGDEDTLFRLMDPHARDVVGDKEFHGREEVKHHLRELLLEIRIEDSHVEDFRVYDGVAEIDTRQHGIFNGKRLEYETRILVLKVNGRWIFTHVERR', 'protease stability score', 0.592),
  ('SEKEKLMHDIIEKYMRNLETGNEEEYAKLADPNTRLHYGNKHRVGWKEIVHTLRHWRIHIRDSEIDSIHNIDGQAFVKGKRKGEINVDGVNIDTTFDVDIIINVFDGRLKEIEIRIH', 'protease stability score', 0.068),
  ('DEYDHIAKLMVKLWLEWYLTGDEDYFNHYADPEVRSEVGDKRFHGRELFMRYIWEHHRERGVEIEIIVRRVEVQGEKAEVDGELIVRQGDKEHRLRVHIELKVVNGVLKKIRIEFR', 'protease stability score', 0.561),
  ('DEEDRFAEEYIRLLHEIIKTGDWHQLKRMVDPNARWDVNGVDVIGMEEYVRVWKDEIDRFKGLRLHPRIRHVDFINGRIHVHSEKKVEYGDKEETFETKRHIFLFNGVDTHFSIRID', 'protease stability score', 0.278),
  ('DKELHIAYHLLKVFEHTLATGDEETSERLLDPDVRFWINGVDFHGWELFSTFMKHARFSFRDSRFHDNRLVNGQINLVGRVRLEIDVDGRRHHTETDVRVVILKVDGRWVIHSMEFK', 'protease stability score', 1.46),
  ('SEEEEISKTAIELMIRALHTGDWQHWLHLADPHYRVNINGREHHGREDSLRIINELLELLGVERVELRLEDFRVIDGRIHIITKMHYNGVVTDNRLIMKKVDGKWQLDTVIVT', 'protease stability score', 1.05),
  ('DHEHEEFEENLEHFEHHMKTGDFELLLKLADPHVKIHVNGRDYHGWEELKRVLETLGISKVKVEFHRIHLINGVAFNDGKMEVNGVHTKTHYVAKKVNGRWFMRSMEMN', 'protease stability score', 0.775),
  ('SEEDEFVHEMVEILLKMFLTGDFQHFKRLADPHVMFVFNGKRFHGRHWVLDELIRFPNIKFELTHYEFDDINGVVHINIFGQRDVDGKNENVELHFVVEKVDGRWKIHRIIFRLR', 'protease stability score', 1.11),
  ('DEHTDAVETTWKRLLEDERTGNEDSLERLADPNYRVIINGKHYHGMEHSLHILSEWRITDHEIKDVEIQGEKAHIDGRFNGIIDGKHLNIHVLILIEKVDGRWIIKSVIFK', 'protease stability score', -0.096),
  ('DEREEIAKHLLDLLMHFSKTGDWKKIEDLFDPNTRIHINGVEHVGMEEIARHISEWRIHSIHIKHLDYQGEFIHMDGELDVEVNGRRHKTRMHIIVVKYNGRWLIHHIEVH', 'protease stability score', 2.03),
  ('SEEKKESDKFFEEWVRSAQTGDEDRVREMLDPNARVEIGDKTYVGRELFLRIMVEIRIKDIILKDIRIQGDKLRNDGELLITVDGKEIRVETHIIAEKVDGRWVLSRFVWH', 'protease stability score', 1.35),
  ('DELEEETRFILEYLRHSWKTGDWRLESRMADPDVRLDVDGKHLHGREMVSHFAKRLSERVDHSEFIERDLRIQGNKIELHGELILRFNGVEVHRELHLHISKVNGRWVLKDIRIG', 'protease stability score', 0.831),
  ('DETEEMIKRHMDKLFRAVRTGDWDQFVKLADPNTRIEVGDFHYHGWERFSEFMSELRIHRFRMHDSEVVNGRVHLHTEEDGEVNGKRRESRVHRVLLKIDGRWHLHSVHIE', 'protease stability score', 0.909),
  ('DESQHVAEKVYKHLLKYWVTGDEDSVSRLVDPHARLHFEGRDLHGRHLISQFRMEWRLDHVHVDDMQVQGDKMEVRGKLDTTIDGRRTNLNEHLRLEKIDGRWYIREIRIE', 'protease stability score', 1.25),
  ('SEEDKIALEILEMTKKLWDTGDEELMVDLVDPHVKVDWDGRERHGREAVEFFFRSIIEKVKNLTIRLTDFRVINGRIEIDSTLKFNGKTLEVRIISTKIDGQWYIESISFR', 'protease stability score', 1.38),
  ('DDEEKYFRMAVHHIIHLLHTGDETDSEHQADPDVRITVGDKRFHGREDFRDWVRELTDRYKNMTFRLKSVDVQGDFIILHGLLHFNGKNVEFDVFSWKFNGKWFMHHIIVR', 'protease stability score', 1.72);

Source of measurements: the NTF2 design screens of Basanta et al. (2020)
